# System: Mycobacterium tuberculosis
# protocol: Antimycobacterial activity against multidrug-resistance Mycobacterium tuberculosis A8 after 28 days by serial dilution method
# Assay type: functional
# protocolConditions: Mycobacterium tuberculosis, A8, 672 h
quantityMeasured: log10(MIC) (log10 of the value in µM)

compoundSmiles | log10(MIC)
O=C(Oc1ccc(Br)cc1C(=O)Nc1ccc(Cl)c(Cl)c1)c1cnc(Cl)cn1 | 0.30
O=C(NCCCl)Oc1ccc(Cl)cc1C(=O)Nc1ccc(Cl)c(Cl)c1 | 0.38
O=C(Nc1ccc(Cl)c(Cl)c1)c1cc(Br)ccc1O | 0.45
O=C(NCCCCl)Oc1ccc(Br)cc1C(=O)Nc1ccc(Cl)c(Cl)c1 | 0.00
O=C(Oc1ccc(Cl)cc1C(=O)Nc1ccc(C(F)(F)F)cc1)c1cnc(Cl)cn1 | 0.04
O=C(Nc1ccc(C(F)(F)F)cc1)c1cc(Cl)ccc1O | 0.20
O=C(NCCCl)Oc1ccc(Br)cc1C(=O)Nc1ccc(C(F)(F)F)cc1 | 0.04
O=C(NCCCl)Oc1ccc(Br)cc1C(=O)Nc1ccc(Cl)c(Cl)c1 | 0.34
O=C(NCCCCl)Oc1ccc(Cl)cc1C(=O)Nc1ccc(Cl)c(Cl)c1 | 0.08
O=C(c1ccccc1)c1ccc(NC(=O)c2cc(Br)ccc2O)cc1 | 1.10

====

A collection of molecules and their measured MIC
# System: Mycobacterium tuberculosis
# protocol: Antimycobacterial activity against multidrug-resistance Mycobacterium tuberculosis A8 after 28 days by serial dilution method
# Format: functional
# protocolConditions: Mycobacterium tuberculosis, A8, 672 h

molecule | MIC (µM)
O=C(NCCCCl)Oc1ccc(Cl)cc1C(=O)Nc1ccc(C(=O)c2ccccc2)cc1 | 21.3
O=C(NCCCCl)Oc1ccc(Cl)cc1C(=O)Nc1ccc(C(F)(F)F)cc1 | 1.2
NNC(=O)c1ccncc1 [ISONIAZID] | 7.3
O=C(NCCCl)Oc1ccc(Cl)cc1C(=O)Nc1ccc(C(=O)c2ccccc2)cc1 | 10.9
O=C(NCCCCl)Oc1ccc(Br)cc1C(=O)Nc1ccc(C(F)(F)F)cc1 | 1

====

# Tested on: Mycobacterium tuberculosis
# protocol: Antimycobacterial activity against multidrug-resistance Mycobacterium tuberculosis A8 after 28 days by serial dilution method
# Format: functional
# protocolConditions: Mycobacterium tuberculosis, A8, 672 h

compoundSmiles | subjectOfTest | MIC
CCCNC(=O)Oc1ccc(Cl)cc1C(=O)Nc1ccc(Cl)c(Cl)c1 | Mycobacterium tuberculosis | 1.3 µM
O=C(NCCCl)Oc1ccc(Cl)cc1C(=O)Nc1ccc(C(F)(F)F)cc1 | Mycobacterium tuberculosis | 1.2 µM
O=C(NCCCCl)Oc1ccc(Br)cc1C(=O)Nc1ccc(C(=O)c2ccccc2)cc1 | Mycobacterium tuberculosis | 1.9 µM
O=C(Oc1ccc(Br)cc1C(=O)Nc1ccc(C(F)(F)F)cc1)c1cnc(Cl)cn1 | Mycobacterium tuberculosis | 2 µM
O=C(Nc1ccc(Cl)c(Cl)c1)c1cc(Cl)ccc1O | Mycobacterium tuberculosis | 1.6 µM

====

# protocol: Selectivity index, ratio of IC50 for human MONO-MAC-6 cells to MIC for multidrug-resistance Mycobacterium tuberculosis A8
# Type: toxicity
# protocolConditions: read-out: Selectivity Index
A collection of molecules and their measured selectivity ratio

compoundSmiles | selectivity ratio
O=C(NCCCl)Oc1ccc(Cl)cc1C(=O)Nc1ccc(Cl)c(Cl)c1 | 1.9
O=C(Nc1ccc(C(F)(F)F)cc1)c1cc(Br)ccc1O | 2.7
O=C(NCCCl)Oc1ccc(Cl)cc1C(=O)Nc1ccc(C(=O)c2ccccc2)cc1 | 3.5
CCCNC(=O)Oc1ccc(Cl)cc1C(=O)Nc1ccc(Cl)c(Cl)c1 | 5.4
O=C(Oc1ccc(Cl)cc1C(=O)Nc1ccc(Cl)c(Cl)c1)c1cnc(Cl)cn1 | 2.3
O=C(NCCCl)Oc1ccc(Cl)cc1C(=O)Nc1ccc(C(F)(F)F)cc1 | 6.3
O=C(c1ccccc1)c1ccc(NC(=O)c2cc(Br)ccc2O)cc1 | 1.7
O=C(Oc1ccc(Br)cc1C(=O)Nc1ccc(C(F)(F)F)cc1)c1cnc(Cl)cn1 | 0.6
O=C(Oc1ccc(Cl)cc1C(=O)Nc1ccc(C(F)(F)F)cc1)c1cnc(Cl)cn1 | 1
O=C(NCCCl)Oc1ccc(Br)cc1C(=O)Nc1ccc(C(=O)c2ccccc2)cc1 | 1.2
O=C(NCCCCl)Oc1ccc(Br)cc1C(=O)Nc1ccc(C(=O)c2ccccc2)cc1 | 6.6
CCCNC(=O)Oc1ccc(Cl)cc1C(=O)Nc1ccc(C(=O)c2ccccc2)cc1 | 1.6
O=C(NCCCCl)Oc1ccc(Br)cc1C(=O)Nc1ccc(C(F)(F)F)cc1 | 5.7
O=C(NCCCl)Oc1ccc(Br)cc1C(=O)Nc1ccc(C(F)(F)F)cc1 | 8.5
O=C(Nc1ccc(Cl)c(Cl)c1)c1cc(Cl)ccc1O | 2.3
O=C(NCCCCl)Oc1ccc(Cl)cc1C(=O)Nc1ccc(Cl)c(Cl)c1 | 2.1
O=C(Oc1ccc(Br)cc1C(=O)Nc1ccc(Cl)c(Cl)c1)c1cnc(Cl)cn1 | 2.9
O=C(c1ccccc1)c1ccc(NC(=O)c2cc(Cl)ccc2O)cc1 | 3.4
O=C(NCCCCl)Oc1ccc(Cl)cc1C(=O)Nc1ccc(C(=O)c2ccccc2)cc1 | 0.8
O=C(NCCCCl)Oc1ccc(Cl)cc1C(=O)Nc1ccc(C(F)(F)F)cc1 | 7.3
O=C(Nc1ccc(Cl)c(Cl)c1)c1cc(Br)ccc1O | 1.3
O=C(NCCCl)Oc1ccc(Br)cc1C(=O)Nc1ccc(Cl)c(Cl)c1 | 3.1
O=C(NCCCCl)Oc1ccc(Br)cc1C(=O)Nc1ccc(Cl)c(Cl)c1 | 9.5
